Below, log10 of IC50 values reported for Tyrosine-protein phosphatase non-receptor type 1 (Homo sapiens, UniProt P18031) across several publications.
Use the decimal logarithm of IC50 (µM).

CC(=O)NCc1ccc2cc(Br)c(C(F)(F)P(=O)(O)O)cc2c1 :: 0.18

Missing value: log10 of IC50, Tyrosine-protein phosphatase non-receptor type 1 (Homo sapiens, UniProt P18031), entry O=C(O)C(=O)c1ccc(OCc2ccc(COc3ccc(C(=O)C(=O)O)cc3)cc2)cc1 . Fill in?
0.76

Missing value: log10 of IC50, Tyrosine-protein phosphatase non-receptor type 1 (Homo sapiens, UniProt P18031), entry COC(=O)[C@]1(O)C[C@@H](OC(=O)/C=C/c2ccc(O)c(O)c2)[C@@H](O)[C@H](OC(=O)/C=C/c2ccc(O)c(O)c2)C1 . Fill in?
1.63

Missing value: log10 of IC50, Tyrosine-protein phosphatase non-receptor type 1 (Homo sapiens, UniProt P18031), entry COc1ccc(C2=NOC(c3ccccn3)C2)c(OC)c1 (stereo not drawn) . Fill in?
2.69

Missing value: log10 of IC50, Tyrosine-protein phosphatase non-receptor type 1 (Homo sapiens, UniProt P18031), entry O=[N+]([O-])c1ccccc1S(=O)(=O)N(Cc1ccccc1)Cc1ccc(C(F)(F)P(=O)(O)O)cc1 . Fill in?
0.85

Missing value: log10 of IC50, Tyrosine-protein phosphatase non-receptor type 1 (Homo sapiens, UniProt P18031), entry O=C(O)c1cc(Cc2ccccc2)cc(Cc2ccccc2)c1O . Fill in?
1.96

Missing value: log10 of IC50, Tyrosine-protein phosphatase non-receptor type 1 (Homo sapiens, UniProt P18031), entry NC(Cc1ccc2cc(OCc3ccccc3F)ccc2c1)C(=O)O (racemic) . Fill in?
1.39

Missing value: log10 of IC50, Tyrosine-protein phosphatase non-receptor type 1 (Homo sapiens, UniProt P18031), entry CC(C)=CCC[C@H](C)[C@@H]1C[C@H](O)[C@@H](C)c2c(O)cc(C)cc21 . Fill in?
1.90

Missing value: log10 of IC50, Tyrosine-protein phosphatase non-receptor type 1 (Homo sapiens, UniProt P18031), entry c1ccc(CNc2ccc3nsnc3c2)cc1 . Fill in?
1.62

Missing value: log10 of IC50, Tyrosine-protein phosphatase non-receptor type 1 (Homo sapiens, UniProt P18031), entry O=C(Nc1ccccc1C(=O)O)c1csc([C@H](Cc2ccc(OCc3ccccc3)cc2)NC(=O)C2CCCCC2)n1 . Fill in?
0.91

Missing value: log10 of IC50, Tyrosine-protein phosphatase non-receptor type 1 (Homo sapiens, UniProt P18031), entry COc1ccc(S(=O)(=O)NC(Cc2ccc(C3CC(=O)NS3(=O)=O)cc2)c2nc3ccccc3[nH]2)cc1 (stereo not drawn) . Fill in?
-1.03

Missing value: log10 of IC50, Tyrosine-protein phosphatase non-receptor type 1 (Homo sapiens, UniProt P18031), entry O=Cc1coc2c(Cl)cc(Cl)cc2c1=O . Fill in?
1.40
